Tested on: Leishmania donovani
assay-summary: Antileishmanial activity against Leishmania donovani MHOM/SD/62/ISCL2D axenic amastigotes after 72 hrs by alamar blue assay
Type: functional
IC50 strictly less than 100 µM = label 1. Otherwise label 0.

Look over these answered cases.
molecule: CC(=O)O[C@@H]1[C@H](OC(C)=O)[C@@H](CI)O[C@H]1n1cnc2c(N)nc(Cl)nc21
class-name: label 1
--
molecule: CS(=O)(=O)C[C@H]1O[C@@H](n2cnc3c(N)nc(Cl)nc32)[C@H](O)[C@@H]1O
class-name: label 0
--
molecule: CC(=O)O[C@@H]1[C@H](OC(C)=O)[C@@H](C[S+](C)[O-])O[C@H]1n1cnc2c(N)nc(Cl)nc21 (some centres undefined)
class-name: label 0

Lab log: compare recorded IC50 with 100 µM; is it strictly lower for CSC[C@H]1O[C@@H](n2cnc3c(N(C)N=O)nc(F)nc32)[C@H](O)[C@@H]1O ? label 0

Lab log: compare recorded IC50 with 100 µM; is it strictly lower for CNc1nc(N)nc2c1ncn2[C@@H]1O[C@H](C)[C@@H](O)[C@H]1O ? label 0

Lab log: compare recorded IC50 with 100 µM; is it strictly lower for CCCCCCCCCCCCCCCCOP(=O)([O-])OCC[N+](C)(C)C [MILTEFOSINE] ? label 1

Lab log: compare recorded IC50 with 100 µM; is it strictly lower for CC(=O)O[C@@H]1[C@H](OC(C)=O)[C@@H](CI)O[C@H]1n1cnc2c(N)nc(F)nc21 ? label 1

Lab log: compare recorded IC50 with 100 µM; is it strictly lower for C[C@H]1O[C@@H](n2cnc3c(N)nc(I)nc32)[C@H](O)[C@@H]1O ? label 0

Lab log: compare recorded IC50 with 100 µM; is it strictly lower for CSC[C@H]1O[C@@H](n2cnc3c(N)nc(I)nc32)[C@H](O)[C@@H]1O ? label 0

---

Tested on: Leishmania donovani
assay-summary: Antileishmanial activity against Leishmania donovani MHOM/SD/62/ISCL2D axenic amastigotes after 72 hrs by alamar blue assay
Assay type: functional
measured-attribute: pIC50
One number for each entry, as −log10 of the molar value.

Worked cases, answers included:
compound: C[C@H]1O[C@@H](n2cnc3c(N)nc(NN)nc32)[C@H](O)[C@@H]1O
assay-result: 4.14
//
compound: CSC[C@H]1O[C@@H](n2cnc3c(N)nc(Cl)nc32)[C@H](OC(C)=O)[C@@H]1OC(C)=O
assay-result: 4.41
//
compound: CNc1nc(I)nc2c1ncn2[C@@H]1O[C@H](CSC)[C@@H](O)[C@H]1O
assay-result: 4.00
//
compound: CSC[C@H]1O[C@@H](n2cnc3c(/N=C/N(C)C)nc(F)nc32)[C@H](O)[C@@H]1O
assay-result: 5.60
//
compound: CSC[C@H]1O[C@@H](n2cnc3c(N)nc(Cl)nc32)[C@H](O)[C@@H]1O
assay-result: 4.22
//
compound: CSC[C@H]1O[C@@H](n2cnc3c(N)nc(F)nc32)[C@H](O)[C@@H]1O
assay-result: 6.10
//
compound: CNc1nc(I)nc2c1ncn2[C@@H]1O[C@H](C)[C@@H](O)[C@H]1O
assay-result: 3.70
//
compound: CC(=O)NC[C@H]1O[C@@H](n2cnc3c(N)nc(F)nc32)[C@H](O)[C@@H]1O
assay-result: 3.93

Lab note: each compound below needs its pIC50 filled in.
1. [N-]=[N+]=NC[C@H]1O[C@@H](n2cnc3c(N)nc(F)nc32)[C@H](O)[C@@H]1O
2. CNc1nc(C#N)nc2c1ncn2[C@@H]1O[C@H](C)[C@@H](O)[C@H]1O
3. CC(=O)O[C@@H]1[C@H](OC(C)=O)[C@@H](CN2C(=O)c3ccccc3C2=O)O[C@H]1n1cnc2c(N)nc(Cl)nc21
4. CNc1nc(C#N)nc2c1ncn2[C@@H]1O[C@H](CSC)[C@@H](O)[C@H]1O
5. CC(=O)O[C@@H]1[C@H](OC(C)=O)[C@@H](CN=[N+]=[N-])O[C@H]1n1cnc2c(N)nc(F)nc21
6. C[C@H]1O[C@@H](n2cnc3c(N)nc(C#N)nc32)[C@H](O)[C@@H]1O

[6.00, 3.83, 3.86, 4.66, 4.48, 4.00]

Lab note: each compound below needs its pIC50 filled in.
1. COc1nc(I)nc2c1ncn2[C@@H]1O[C@H](C)[C@@H](O)[C@H]1O
2. C[C@H]1O[C@@H](n2cnc3c(N)nc(N)nc32)[C@H](O)[C@@H]1O
3. CC(=O)O[C@@H]1[C@H](OC(C)=O)[C@@H](CN=[N+]=[N-])O[C@H]1n1cnc2c(N)nc(Cl)nc21
4. C[C@H]1O[C@@H](n2cnc3c(N)nc(N=[N+]=[N-])nc32)[C@H](O)[C@@H]1O

3.90
4.29
3.94
3.90

Lab note: each compound below needs its pIC50 filled in.
1. [N-]=[N+]=NC[C@H]1O[C@@H](n2cnc3c(N)nc(Cl)nc32)[C@H](O)[C@@H]1O
2. C[S+]([O-])C[C@H]1O[C@@H](n2cnc3c(N)nc(F)nc32)[C@H](O)[C@@H]1O (some centres undefined)
3. C[C@H]1O[C@@H](n2cnc3c(N)nc(F)nc32)[C@H](O)[C@@H]1O
4. CSC[C@H]1O[C@@H](n2cnc3c(N)nc(F)nc32)[C@H](OC(C)=O)[C@@H]1OC(C)=O

1: 3.71; 2: 4.48; 3: 6.06; 4: 4.74

Lab note: each compound below needs its pIC50 filled in.
1. C[C@H]1O[C@@H](n2cnc3c(N)nc(Cl)nc32)[C@H](O)[C@@H]1O
2. CSC[C@H]1O[C@@H](n2cnc3c(N)nc(N=[N+]=[N-])nc32)[C@H](O)[C@@H]1O

[4.31, 3.54]

Consider the compound CSC[C@H]1O[C@@H](n2cnc3c(N)nc(NN)nc32)[C@H](O)[C@@H]1O and give its recorded pIC50. 3.76

---

Consider the following compounds; for each one, report its selectivity ratio.
assay-summary: Selectivity index, ratio of IC50 for rat L6 cells to IC50 for chloroquine resistant Plasmodium falciparum K1 erythrocytic stage
Assay type: toxicity
condition-description: read-out: Ratio IC50
Give bare numbers.

Worked cases, answers included:
compound: CNc1nc(Cl)c2ncn([C@@H]3O[C@H](C)[C@@H](O)[C@H]3O)c2n1
selectivity ratio: 1

compound: CS(=O)(=O)C[C@H]1O[C@@H](n2cnc3c(N)nc(Cl)nc32)[C@H](O)[C@@H]1O
selectivity ratio: 6

compound: CC(=O)NC[C@H]1O[C@@H](n2cnc3c(N)nc(Cl)nc32)[C@H](OC(C)=O)[C@@H]1OC(C)=O
selectivity ratio: 2

compound: C[S+]([O-])C[C@H]1O[C@@H](n2cnc3c(N)nc(F)nc32)[C@H](O)[C@@H]1O (stereo partly drawn)
selectivity ratio: 2

compound: C[S+]([O-])C[C@H]1O[C@@H](n2cnc3c(N)nc(Cl)nc32)[C@H](O)[C@@H]1O (stereo partly drawn)
selectivity ratio: 18

Lab note: each compound below needs its selectivity ratio filled in.
1. CC(=O)NC[C@H]1O[C@@H](n2cnc3c(N)nc(F)nc32)[C@H](O)[C@@H]1O
2. Nc1nc([Se][Se]c2nc(N)nc3c2ccn3[C@@H]2O[C@H](CO)[C@@H](O)[C@H]2O)c2ccn([C@@H]3O[C@H](CO)[C@@H](O)[C@H]3O)c2n1

[10, 1]

---

assay-summary: Selectivity index, ratio of IC50 for rat L6 cells to IC50 for bloodstream forms of Trypanosoma brucei rhodesiense STIB900 trypomastigotes
Assay type: toxicity
condition-description: read-out: Ratio IC50
measured-attribute: selectivity ratio

substance-smiles: C[C@H]1O[C@@H](n2cnc3c(N)nc(N=[N+]=[N-])nc32)[C@H](O)[C@@H]1O
assay-result: 1

Lab note: each compound below needs its selectivity ratio filled in.
1. Nc1nc([Se][Se]c2nc(N)nc3c2ccn3[C@@H]2O[C@H](CO)[C@@H](O)[C@H]2O)c2ccn([C@@H]3O[C@H](CO)[C@@H](O)[C@H]3O)c2n1
2. CC(=O)NC[C@H]1O[C@@H](n2cnc3c(N)nc(Cl)nc32)[C@H](O)[C@@H]1O
3. CSC[C@H]1O[C@@H](n2cnc3c(N)nc(C#N)nc32)[C@H](O)[C@@H]1O
4. CNc1nc(NC)c2ncn([C@@H]3O[C@H](C)[C@@H](O)[C@H]3O)c2n1
5. CSC[C@H]1O[C@@H](n2cnc3c(N)nc(NN)nc32)[C@H](O)[C@@H]1O
6. C[C@H]1O[C@@H](n2cnc3c(N)nc(N)nc32)[C@H](O)[C@@H]1O
7. C[C@H]1O[C@@H](n2cnc3c(N)nc(F)nc32)[C@H](O)[C@@H]1O

[3, 2, 2, "< 0.6", 1, 2, "< 0.1"]

Consider the compound C[C@H]1O[C@@H](n2cnc3c(N)nc(NN)nc32)[C@H](O)[C@@H]1O and give its recorded selectivity ratio. 1
